# System: CMK
# ASSAY_OVERVIEW: Secondary dose-response HTS, Cell Titer Glo
# Type: cell-based, human
# RUN_CONDITIONS: secondary high-throughput screen; CMK
ENDPOINT: average effective concentration, CMK

> print(dat)
                         structure.notation                              endpoint  reported.value
1  COCCCn1c(N)c(C(=O)NC2CCCC2)c2nc3ccccc3nc21  average effective concentration, CMK        Inactive
2  COC1=C2C[C@@H](C)C[C@H](OC)[C@H](O)[C@@H](C)/C=C(\C)[C@H](OC(N)=O)[C@@H](OC)/C=C\C=C(/C)C(=O)NC(=CC1=O)C2=O  average effective concentration, CMK        Inactive
3  C/C(=C\C(=O)Nc1ccccc1C(=O)O)c1ccc2ccccc2c1  average effective concentration, CMK        Inactive

* * *

# Tested on: CHRF288-11
# ASSAY_OVERVIEW: Secondary dose-response HTS, Cell Titer Glo
# Format: cell-based, human
# RUN_CONDITIONS: Homo sapiens, HTS; secondary high-throughput screen; CHRF288-11; read-out: average effective concentration, CHRF288-11
ENDPOINT: EC50 (µM)
# value in µM; strip the unit string

Illustrative cases are given below, each with its answer.
MOLECULE	TARGET_OF_ASSAY	EC50 / µM
C[C@H]1[C@@H](O)O[C@@H]2O[C@@]3(C)CC[C@H]4[C@H](C)CC[C@@H]1[C@@]24OO3 [DIHYDROARTEMISININ]	CHRF288-11	9.5
C[C@@H]1O[C@@H](O[C@H]2C[C@@H](O)[C@]3(CO)[C@H]4[C@H](O)C[C@]5(C)[C@@H](C6=CC(=O)OC6)CC[C@]5(O)[C@@H]4CC[C@]3(O)C2)[C@H](O)[C@H](O)[C@H]1O [Ouabain, reference compound]	CHRF288-11	0.043
Nc1nc2[nH]cc(CCc3ccc(C(=O)N[C@@H](CCC(=O)O)C(=O)O)cc3)c2c(=O)[nH]1 [PEMETREXED]	CHRF288-11	0.1

Input line: Which measured EC50 belongs to NC(=O)c1cccc(N)c1 [Compound 3-AMINOBENZAMIDE] , tested on CHRF288-11?
Output line: 3

Input line: Request: EC50, test system CHRF288-11, entry COCc1c(C(C)C)nc(C(C)C)c(/C=C/[C@@H](O)C[C@@H](O)CC(=O)O)c1-c1ccc(F)cc1 [CERIVASTATIN]
Output line: 0.049

* * *

# Test system: M07e
# ASSAY_OVERVIEW: Secondary dose-response HTS, Cell Titer Glo
# Type: cell-based, human
# RUN_CONDITIONS: secondary high-throughput screen; M07e; read-out: average effective concentration, M07e
ENDPOINT: EC50 (nM)
State just the number; it will be interpreted in nM.

Input line: Give its EC50 value. Item: `O=C1c2ccccc2-c2nc3nnnn3nc21.O=C1c2ccccc2-c2nn3nnnc3nc21`
Output line: 53

* * *

# System: U937
# Parameters: species or system AML cell lines (8); Primary HTS, single concentration about 10 uM, Cell Titer Glo viability; log10 luminescence, per cent inhibition relative to cycloheximide control
# RUN_CONDITIONS: 72 h, relative to cycloheximide control, log10 luminescence; inhibitor
ENDPOINT: U937 %inh (%)
Numbers only; they are read as %.

Check out these entries, answers already filled in.
> print(dat)
                                   compound  target.of.assay   endpoint  reported.value
1  Cc1cc(-c2ccccn2)cc(C)c1/C=C/c1cncc(-c2nn[nH]n2)c1             U937  U937 %inh           1.124
2  COc1cc2c(cc1Nc1nc(Nc3ccsc3C(N)=O)c3cc[nH]c3n1)N(C(=O)CN(C)C)CCC2(C)C             U937  U937 %inh           51.73
3  Cn1cc(C2=C(c3ccccc3C(F)(F)F)C(=O)NC2=O)c2ccccc21             U937  U937 %inh           1.904
4  CC(C)(C)c1ccc(C(O)CCCN2CCC(C(O)(c3ccccc3)c3ccccc3)CC2)cc1 (stereo not drawn)             U937  U937 %inh          0.7714

Input line: Which U937 %inh is listed for `O=C(Nc1n[nH]c2cc(-c3cc(F)ccc3F)ccc12)C1CC1` ?
Output line: 8.276

Input line: Returns the measured U937 %inh for the input compound. Input: `CCCCCCCCCCCCCCCCOP(=O)([O-])OCC[N+](C)(C)C`
Output line: -1.059

Input line: Fill in the blank: the reported U937 %inh of `COc1cccc(Nc2nccc(-c3cnn4ncccc34)n2)c1` is ____.
Output line: 74.45

Input line: Query: U937 %inh; subject: `CCn1c(-c2nonc2N)nc2cnc(Oc3cccc(NC(=O)c4ccc(N(C)C)cc4)c3)cc21`
Output line: 5.13

Input line: Given the entry `CC(=O)N[C@@H](Cc1ccc(OP(=O)(O)O)cc1)C(=O)N[C@H]1CCC(=O)N2CCC[C@@H](C(=O)NCc3ccc(Cl)cc3)N2C1=O` , report its measured U937 %inh.
Output line: -1.499

Input line: // U937 %inh lookup, key: `Nc1c(C(=O)c2cccc(CCC3(O)CCCC3)c2)cnn1-c1ccc(F)cc1`
Output line: 3.468

Input line: Dear colleague, I am looking for the recorded U937 %inh of the following compound: `Cc1ccc2cc3c(ccc4ccccc43)c3c2c1CC3`
Output line: 0.01725

Input line: Any idea what U937 %inh was measured for `C[C@@H](Oc1cc(-n2cnc3ccc(OCC4CCN(C)CC4)cc32)sc1C(N)=O)c1ccccc1C(F)(F)F` ?
Output line: 73.66

Input line: Can you share its U937 %inh? I mean this compound: `C=CCNC(=O)c1cc([N+](=O)[O-])cc2c(=O)[nH]c(Nc3ccc(Cl)c(Cl)c3)nc12`
Output line: -1.321

Input line: Please give the measured U937 %inh for this compound: CN(C)CCOC(C)(c1ccccc1)c1ccccn1 (stereo not drawn) [SJ000285751-7, DOXYLAMINE SUCCINATE]
Output line: -1.083

Input line: GET /values?readout=U937 %inh&item= CCCCC1C(=O)N(c2ccccc2)N(c2ccc(O)cc2)C1=O (stereo not drawn)
Output line: 81.76

* * *

Examples of compounds with documented CHRF288-11 %inh follow.
# System: CHRF288-11
# Set-up: species or system AML cell lines (8); Primary HTS, single concentration about 10 uM, Cell Titer Glo viability; log10 luminescence, per cent inhibition relative to cycloheximide control
# RUN_CONDITIONS: 72 h, relative to cycloheximide control, log10 luminescence; inhibitor
Where a name gives a salt, the structure may show the parent alone.
Give the value in % but do not write % after it.

Observe how each entry below is paired with its result.
> print(dat)
                                   compound         endpoint  reported.value
1  Cc1cc(O)cc(C)c1/C=C/c1cncc(C(=O)OC(C)(C)C)c1  CHRF288-11 %inh           -1.68
2  Cn1c(=O)c(Oc2cccc(F)c2)cc2cnc(NC3CCOCC3)nc21  CHRF288-11 %inh          0.6759

Input line: What value of CHRF288-11 %inh has been recorded for this entry: `Cn1cc(C2=C(c3cn(CCCCCO)c4ccccc34)C(=O)NC2=O)c2ccccc21`
Output line: 17.96

Input line: Reported CHRF288-11 %inh for CC1=C(C(=O)Nc2cc(Cl)c3[nH]ncc3c2)C(c2ccc(C(F)(F)F)cc2)CC(=O)N1 (stereo not shown) : what is it?
Output line: 20.3

Input line: // query CHRF288-11 %inh value for entry `NS(=O)(=O)c1ccc(-c2ccc3c(NC(=O)C4CC4)n[nH]c3c2)cc1`
Output line: 4.361

Input line: Value lookup for CHRF288-11 %inh; key = `C[C@H](CS(C)(=O)=O)Nc1ncc2cc(Oc3ccc(F)cc3F)c(=O)n(C)c2n1`
Output line: 14.97

Input line: So what does the record say about CHRF288-11 %inh for `Cc1ccccc1-n1ncc(C(=O)c2ccccc2)c1N` ?
Output line: -2.402

Input line: Quick one: CHRF288-11 %inh of `Cn1cc(C2=C(c3c4n(c5ccccc35)CCNC4)C(=O)NC2=O)c2ccccc21` ?
Output line: 19.49

Input line: Can you share its CHRF288-11 %inh? I mean this compound: `COc1ccc(-c2nn3ncccc3c2-c2ccnc(Nc3ccc4c(c3)OCCO4)n2)cc1`
Output line: 4.025

Input line: // CHRF288-11 %inh lookup, key: `Nc1c(C(=O)c2cccc(-c3ccncc3)c2)cnn1-c1ccc(F)cc1`
Output line: -2.059

Input line: What value of CHRF288-11 %inh has been reported for the following compound? CC(=O)Nc1nnc(S(N)(=O)=O)s1 [SJ000285803-7, ACETAZOLAMIDE]
Output line: 0.8463

Input line: May I ask what CHRF288-11 %inh has been recorded for `CCOc1ccc2c(-c3ccnc(Nc4cc(OC)cc(C(F)(F)F)c4)n3)cnn2n1` ?
Output line: 13.25

Input line: Can you look up the measured CHRF288-11 %inh of CC(CN(C)C)CN1c2ccccc2Sc2ccccc21 (stereo not shown) [SJ000285488-4, TRIMEPRAZINE TARTRATE] for me?
Output line: 12.91

Input line: What CHRF288-11 %inh value was documented for this compound, C/C(O)=C(\C#N)C(=O)Nc1ccc(C(F)(F)F)cc1 [SJ000556684-2, TERIFLUNOMIDE] ?
Output line: 13.26

Input line: Look up CHRF288-11 %inh: `Nc1c(C(=O)c2cccc(OC[C@H](O)CO)c2)cnn1-c1ccc(F)cc1`
Output line: 2.337

Input line: Look up CHRF288-11 %inh: `O=c1c(-c2ccc(O)cc2)coc2cc(O)ccc12`
Output line: 1.05
